Experiment: Solubility of the compound in 4 to 8% DMSO
Type: physicochemical
Readout Label: solubility

O=[N+]([O-])c1ccc(Sc2nnc(COc3ccccc3)n2-c2ccccc2)c2ncccc12 : Insoluble
O=c1c2cc3ccccc3cc2nc2c3ccccc3nc(-c3ccccc3)n12 : Insoluble
O=[N+]([O-])c1cccc(-c2cn(-c3cccc(I)c3)nn2)c1 : Insoluble
O=C(N/N=C/c1ccc(-c2ccc(C(=O)O)cc2)o1)N/N=C/c1ccc(-c2ccc(C(=O)O)cc2)o1 : Insoluble

---

Target: UniProt:Q14145
Test: Binding affinity to recombinant human KEAP1 Kelch domain (321 to 609 residues) expressed in Escherichia coli BL21 (DE3) assessed as thermal stabilization by sypro orange dye based thermal shift assay
Readout Label: EC50

O=C(NCc1ccccn1)Nc1nnc(-c2ccco2)o1 : ≤ 800 µM
O=[N+]([O-])c1cccc(-c2cn(-c3cccc(I)c3)nn2)c1 : ≤ 100 µM
O=C(O)COc1cccc(CNC(=O)Nc2nnc(-c3ccco3)o2)c1 : ≤ 800 µM
Cc1ccccc1NC(=O)CN1C(=O)S/C(=C\c2cccn2-c2cccc(C(=O)O)c2)C1=O : ≤ 25 µM

Form: item O=C(N/N=C/c1ccc(-c2ccc(C(=O)O)cc2)o1)N/N=C/c1ccc(-c2ccc(C(=O)O)cc2)o1 ; test system UniProt:Q14145; EC50: ≤ 49 µM

Record O=c1c2cc3ccccc3cc2nc2c3ccccc3nc(-c3ccccc3)n12 has UniProt:Q14145 EC50 equal to ≤ 99 µM

Value sought: EC50, system UniProt:Q14145, item O=[N+]([O-])c1ccc(Sc2nnc(COc3ccccc3)n2-c2ccccc2)c2ncccc12 . Result: ≤ 77 µM

Record CCCCC1CCCN1C(=O)[C@@H]1CCC[C@H](c2cccc(-n3ncc(C(=O)O)c3C3CC3)c2)C1 (relative stereo) ; system UniProt:Q14145; EC50 = 10 µM

---

Molecular target: Kelch-like ECH-associated protein 1 (Mus musculus)
Experiment: Binding affinity to Keap1 in mouse Hepa1c1c7 cells assessed as reduction in Keap1 interaction by measuring induction of NQO1 activity at 1 to 10 uM measured after 24 hrs
Assay type: cell-based
Calls of active or inactive are those of the source. The rule behind the calls is not given here.
Write down the outcome that applies. Available outcomes: active, inactive

# count of solved cases: 3
O=C(NCc1ccccn1)Nc1nnc(-c2ccco2)o1 : inactive
O=C1NN(c2cccc(Cl)c2)C(=O)/C1=C\c1ccc(-c2ccc(C(=O)O)c(Cl)c2)o1 : inactive
O=[N+]([O-])c1ccc(Sc2nnc(COc3ccccc3)n2-c2ccccc2)c2ncccc12 : active

Query string: So what was the verdict on O=C(N/N=C/c1ccc(-c2ccc(C(=O)O)cc2)o1)N/N=C/c1ccc(-c2ccc(C(=O)O)cc2)o1 in this test?
Result string: inactive

Query string: Write down the call the test reported for this molecule. Item: COc1ccc(S(=O)(=O)N(CC(N)=O)c2ccc(N(CC(N)=O)S(=O)(=O)c3ccc(OC)cc3)c3ccccc23)cc1
Result string: inactive

---

Target: Kelch-like ECH-associated protein 1 (Homo sapiens, UniProt Q14145)
Sequence (Q14145 whole entry, the tested form may be a part): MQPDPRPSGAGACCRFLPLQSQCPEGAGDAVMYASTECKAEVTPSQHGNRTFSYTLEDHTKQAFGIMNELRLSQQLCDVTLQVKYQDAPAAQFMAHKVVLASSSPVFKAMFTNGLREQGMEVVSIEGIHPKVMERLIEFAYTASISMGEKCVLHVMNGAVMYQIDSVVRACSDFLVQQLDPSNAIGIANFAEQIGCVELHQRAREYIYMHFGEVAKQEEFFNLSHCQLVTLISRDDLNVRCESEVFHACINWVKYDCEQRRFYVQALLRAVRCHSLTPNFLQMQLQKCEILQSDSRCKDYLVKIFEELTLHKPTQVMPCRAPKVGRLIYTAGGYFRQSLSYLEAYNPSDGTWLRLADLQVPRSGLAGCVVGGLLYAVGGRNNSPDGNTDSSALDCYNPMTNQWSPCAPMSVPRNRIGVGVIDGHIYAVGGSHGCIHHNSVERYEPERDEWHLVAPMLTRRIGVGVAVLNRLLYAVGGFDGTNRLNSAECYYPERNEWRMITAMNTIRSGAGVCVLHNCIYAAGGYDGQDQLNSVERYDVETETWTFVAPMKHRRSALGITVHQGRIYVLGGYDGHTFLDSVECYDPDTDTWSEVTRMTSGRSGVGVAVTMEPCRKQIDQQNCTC
Experiment: Inhibition of […]-LDEETGEFL-NH2 binding to recombinant human KEAP1 Kelch domain (321 to 609 residues) expressed in Escherichia coli BL21 (DE3) measured after 10 to 15 mins by fluorescence polarization assay
Readout Label: Ki

CCCCC1CCCN1C(=O)[C@@H]1CCC[C@H](c2cccc(-n3ncc(C(=O)O)c3C3CC3)c2)C1 (relative stereo) : 0.013 µM
Cc1ccccc1NC(=O)CN1C(=O)S/C(=C\c2cccn2-c2cccc(C(=O)O)c2)C1=O : ≤ 200 µM
O=[N+]([O-])c1cccc(-c2cn(-c3cccc(I)c3)nn2)c1 : ≤ 100 µM
Fc1ccc(-c2nc(-c3ccc4nc[nH]c4c3)no2)cc1 : ≤ 800 µM

Kindly consider the entry below.
The compound O=C(O)COc1cccc(CNC(=O)Nc2nnc(-c3ccco3)o2)c1 showed Ki equal to ≤ 800 µM

Source of measurements: ChEMBL document CHEMBL4373719
